Molecular target: Mot3 (UniProt P54785)
Sequence: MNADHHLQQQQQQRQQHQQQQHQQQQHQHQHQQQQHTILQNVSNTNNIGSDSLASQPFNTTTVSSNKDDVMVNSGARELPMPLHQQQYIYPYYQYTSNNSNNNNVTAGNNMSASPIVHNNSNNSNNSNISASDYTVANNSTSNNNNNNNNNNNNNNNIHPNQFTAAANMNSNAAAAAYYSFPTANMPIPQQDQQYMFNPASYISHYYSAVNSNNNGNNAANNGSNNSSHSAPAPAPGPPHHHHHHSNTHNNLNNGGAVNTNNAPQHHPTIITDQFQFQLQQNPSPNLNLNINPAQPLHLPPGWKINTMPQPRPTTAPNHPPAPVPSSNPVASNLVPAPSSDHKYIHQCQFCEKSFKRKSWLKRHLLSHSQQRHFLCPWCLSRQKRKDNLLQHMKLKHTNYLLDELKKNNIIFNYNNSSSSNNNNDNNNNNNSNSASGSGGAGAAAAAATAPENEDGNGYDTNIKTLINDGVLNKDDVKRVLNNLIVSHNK
Assay: PBM E-score (8-mer binding enrichment) (E-score (-0.5 to 0.5)); higher = stronger / more preferred TF binding
Conditions: protein concentration: 200 nM; construct: GST-full length
In all, about 33,000 sequences were measured (“E-score (-0.5 to 0.5)”: median about -0.035, highest 2% from about 0.34 on). Shown is part of a subset that was picked to be rich in the highest values.
Recorded PBM E-score for the following sequences
API note: the answer field is a bare number with no unit suffix.

| Query Sequence | PBM E-score |
| --- | --- |
| ACAGGAAA | 0.453 |
| CTCGAGAG | -0.177 |
| GCAGGACC | -0.237 |
| CCAGGAAG | -0.078 |
| GTGCCCCA | -0.248 |

Now look at this entry.
Form field: reported PBM E-score of "GCGCCTAC"
0.358

---

Biological target: Mot3 (UniProt P54785)
Sequence: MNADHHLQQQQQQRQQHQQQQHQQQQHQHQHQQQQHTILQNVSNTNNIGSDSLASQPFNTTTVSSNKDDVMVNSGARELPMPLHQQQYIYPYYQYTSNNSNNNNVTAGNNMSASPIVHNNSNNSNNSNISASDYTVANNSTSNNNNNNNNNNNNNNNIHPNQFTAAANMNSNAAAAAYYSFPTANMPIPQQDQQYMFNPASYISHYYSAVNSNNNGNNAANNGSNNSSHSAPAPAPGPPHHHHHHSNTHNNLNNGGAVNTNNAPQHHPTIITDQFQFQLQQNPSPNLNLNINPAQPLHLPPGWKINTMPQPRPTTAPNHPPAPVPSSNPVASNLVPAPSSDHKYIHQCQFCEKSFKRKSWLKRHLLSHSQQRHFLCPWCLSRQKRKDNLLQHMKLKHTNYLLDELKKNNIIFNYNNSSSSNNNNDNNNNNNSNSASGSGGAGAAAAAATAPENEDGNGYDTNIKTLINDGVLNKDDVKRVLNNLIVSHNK
Test: PBM E-score (8-mer binding enrichment) (E-score (-0.5 to 0.5)); higher = stronger / more preferred TF binding
Conditions: protein concentration: 200 nM; construct: GST-full length
Whole data set: some 33,000 sequences, median “E-score (-0.5 to 0.5)” near -0.035, cut for the highest 2% near 0.34. What follows is part of a selection rich in the highest values, with near analogues and random picks from the rest.
Readout Name: PBM E-score
API note: the answer field is a bare number with no unit suffix.

Form field: reported PBM E-score of "CGTGTATC"
0.262

Form field: reported PBM E-score of "CATGTCGG"
0.222

Form field: reported PBM E-score of "GAAACTCA"
-0.0953

Form field: reported PBM E-score of "ACAATACC"
0.172

Form field: reported PBM E-score of "CTACTGGC"
-0.182

Form field: reported PBM E-score of "ATCCTTAA"
0.00499

Form field: reported PBM E-score of "CCTCTTGC"
0.0662

Form field: reported PBM E-score of "AAATGCGG"
-0.0946

Form field: reported PBM E-score of "CATCTTAA"
0.0785

---

Biological target: Mot3 (UniProt P54785)
Sequence: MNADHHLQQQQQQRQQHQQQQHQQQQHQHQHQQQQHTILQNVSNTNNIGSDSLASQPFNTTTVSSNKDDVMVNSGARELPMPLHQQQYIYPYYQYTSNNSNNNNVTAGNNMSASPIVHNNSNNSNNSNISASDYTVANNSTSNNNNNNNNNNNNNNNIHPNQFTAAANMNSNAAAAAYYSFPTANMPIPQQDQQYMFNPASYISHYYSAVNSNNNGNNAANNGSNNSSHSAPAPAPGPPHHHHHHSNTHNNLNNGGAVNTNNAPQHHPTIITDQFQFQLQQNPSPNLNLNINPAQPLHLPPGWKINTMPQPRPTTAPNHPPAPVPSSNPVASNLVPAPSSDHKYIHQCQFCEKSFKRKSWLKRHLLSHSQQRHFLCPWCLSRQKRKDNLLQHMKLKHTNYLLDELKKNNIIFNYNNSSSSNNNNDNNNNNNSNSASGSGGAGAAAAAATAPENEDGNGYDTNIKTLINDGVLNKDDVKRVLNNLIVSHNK
Assay: PBM E-score (8-mer binding enrichment) (E-score (-0.5 to 0.5)); higher = stronger / more preferred TF binding
Details: protein concentration: 200 nM; construct: GST-full length
The full ranking holds about 33,000 sequences; the median of “E-score (-0.5 to 0.5)” is about -0.035, and the highest 2% start at about 0.34. What follows is part of a selection rich in the highest values, with near analogues and random picks from the rest.
Quick rule: PBM E-score of at least -0.05 means label 1, below that means label 0.

Example results:
| Query Sequence | Label |
| --- | --- |
| GAACCCTC | label 0 |
| AGAGTTCC | label 0 |
| CGTACCTA | label 1 |
| GACTCCAC | label 0 |
| CAGAGAGC | label 0 |

Decide: is the reported value of PBM E-score for "CCCATGGA" equal to or greater than -0.05?
label 0

Decide: is the reported value of PBM E-score for "CGACTTAC" equal to or greater than -0.05?
label 0

Decide: is the reported value of PBM E-score for "CAAGGATG" equal to or greater than -0.05?
label 1

Decide: is the reported value of PBM E-score for "AGAGTGGA" equal to or greater than -0.05?
label 0

---

Biological target: Mot3 (UniProt P54785)
Sequence: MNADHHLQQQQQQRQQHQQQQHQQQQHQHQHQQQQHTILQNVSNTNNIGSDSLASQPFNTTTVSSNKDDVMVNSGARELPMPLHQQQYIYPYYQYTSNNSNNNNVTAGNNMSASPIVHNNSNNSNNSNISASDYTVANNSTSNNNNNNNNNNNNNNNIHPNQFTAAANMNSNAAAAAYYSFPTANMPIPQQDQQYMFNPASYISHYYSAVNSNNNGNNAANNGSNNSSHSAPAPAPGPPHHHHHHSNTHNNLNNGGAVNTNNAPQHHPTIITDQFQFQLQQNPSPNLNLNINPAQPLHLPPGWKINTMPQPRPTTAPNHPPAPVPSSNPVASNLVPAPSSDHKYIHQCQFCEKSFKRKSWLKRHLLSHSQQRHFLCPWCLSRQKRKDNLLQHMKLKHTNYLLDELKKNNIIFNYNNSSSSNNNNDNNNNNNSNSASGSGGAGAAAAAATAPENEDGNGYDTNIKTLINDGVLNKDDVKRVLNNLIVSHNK
Test: PBM E-score (8-mer binding enrichment) (E-score (-0.5 to 0.5)); higher = stronger / more preferred TF binding
Details: protein concentration: 200 nM; construct: GST-full length
Whole data set: some 33,000 sequences, median “E-score (-0.5 to 0.5)” near -0.035, cut for the highest 2% near 0.34. Many of the other results were omitted from the sample, so the highest values are more common in it than they were.
Quick rule: PBM E-score of at least 0.09 means yes, below that means no.

Example results:
| Query Sequence | Test System | Label |
| --- | --- | --- |
| CCTCTTCA | Mot3 (UniProt P54785) | no |
| TAACAGAA | Mot3 (UniProt P54785) | yes |
| CTACAGGA | Mot3 (UniProt P54785) | yes |
| AAAGGTTC | Mot3 (UniProt P54785) | yes |
| CCTGTGTC | Mot3 (UniProt P54785) | yes |

Decide: is the reported value of PBM E-score for "GCGTAAAA" equal to or greater than 0.09?
yes

Decide: is the reported value of PBM E-score for "CTACAGAC" equal to or greater than 0.09?
no

Decide: is the reported value of PBM E-score for "ATGCGTGG" equal to or greater than 0.09?
no

---

Molecular target: Mot3 (UniProt P54785)
Sequence: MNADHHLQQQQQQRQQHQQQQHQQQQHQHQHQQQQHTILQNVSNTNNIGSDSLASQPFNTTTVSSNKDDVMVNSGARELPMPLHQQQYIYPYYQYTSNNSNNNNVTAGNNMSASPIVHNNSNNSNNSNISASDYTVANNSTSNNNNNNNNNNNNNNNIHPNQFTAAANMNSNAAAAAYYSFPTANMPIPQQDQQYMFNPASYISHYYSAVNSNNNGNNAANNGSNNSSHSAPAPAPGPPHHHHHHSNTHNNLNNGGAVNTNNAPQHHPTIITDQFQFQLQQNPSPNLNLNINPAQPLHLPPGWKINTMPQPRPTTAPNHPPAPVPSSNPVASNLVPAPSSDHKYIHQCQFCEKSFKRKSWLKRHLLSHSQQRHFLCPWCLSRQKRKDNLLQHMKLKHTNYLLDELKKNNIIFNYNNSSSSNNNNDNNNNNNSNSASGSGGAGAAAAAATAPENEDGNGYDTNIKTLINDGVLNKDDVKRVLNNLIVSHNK
Assay: PBM E-score (8-mer binding enrichment) (E-score (-0.5 to 0.5)); higher = stronger / more preferred TF binding
Conditions: protein concentration: 200 nM; construct: GST-full length
In all, about 33,000 sequences were measured (“E-score (-0.5 to 0.5)”: median about -0.035, highest 2% from about 0.34 on). The entries come from a sample that favours the highest values as a whole.
Readout Name: PBM E-score
API note: the answer field is a bare number with no unit suffix.

The cases that follow already have their PBM E-score on record.
| Query Sequence | PBM E-score |
| --- | --- |
| AATTTCCT | 0.364 |
| AGCAAGAA | -0.0228 |
| ACCATGTA | 0.404 |
| AATTTCCG | -0.0949 |

What is its PBM E-score for Mot3 (UniProt P54785)? Entry: "CGTACCTC"
-0.144

What is its PBM E-score for Mot3 (UniProt P54785)? Entry: "TATGTCAA"
0.363
